# Subject Of Test: human PDE5 (Homo sapiens)
# Construct: from tissue; host or cells: human platelets from fresh donor blood (platelet lysate)
# Run Description: Inhibition of PDE5 activity (platelet lysate, SPA assay)
# Format: biochemical
# Applied Conditions: 0.5 μM cGMP, read-out: PDE5 Inhibitory values measured as -logIC50 (converted)
Listed below: IC50 values for each entry.

COc1ccc(C2=NN(C3CCN(C(=O)[C@H](NC(=O)c4c[nH]c5c(-c6c(OCC7CC7)ccc7c6OCO7)ncnc45)C(C)C)CC3)C(=O)[C@@H]3CCCC[C@H]23)cc1OC :: < 1 nM
COc1ccc(C2=NN(C3CCN(C(=O)[C@@H](CCC(=O)N4CCCC4)NC(=O)c4c[nH]c5c(-c6c(OCC7CC7)ccc7c6OCO7)ncnc45)CC3)C(=O)[C@@H]3CCCC[C@H]23)cc1OC :: 1 to 10 nM
COc1ccc(C2=NN(C3CCN(C(=O)[C@@H](Cc4ccc(C(N)=O)cc4)NC(=O)c4c(C)[nH]c5c(-c6c(OCC7CC7)ccc7c6OCO7)ncnc45)CC3)C(=O)[C@@H]3CCCC[C@H]23)cc1OC :: 1 to 10 nM
COc1ccc(C2=NN(C3CCN(C(=O)[C@@H](Cc4ccccc4)NC(=O)c4c(C)[nH]c5c(-c6c(OCC7CC7)ccc7c6OCO7)ncnc45)CC3)C(=O)C3(CCCC3)C2)cc1OC :: 1 to 10 nM

Now, please, on to the next compound.
Query block: Given the compound COc1ccc(C2=NN(C3CCN(C(=O)[C@H](Cc4cccc(C)c4)NC(=O)c4c[nH]c5c(-c6c(OCC7CC7)ccc7c6OCO7)ncnc45)CC3)C(=O)[C@@H]3CCCC[C@H]23)cc1OC , what is its reported IC50?
Result block: 1 to 10 nM
